The values you see were collected from paper PMC6961116.

Exercise: for every item that follows, state its recorded pEC50.
ASSAY_SYSTEM: Notum (Homo sapiens, UniProt Q6P988)
Sequence (Q6P988 20-496): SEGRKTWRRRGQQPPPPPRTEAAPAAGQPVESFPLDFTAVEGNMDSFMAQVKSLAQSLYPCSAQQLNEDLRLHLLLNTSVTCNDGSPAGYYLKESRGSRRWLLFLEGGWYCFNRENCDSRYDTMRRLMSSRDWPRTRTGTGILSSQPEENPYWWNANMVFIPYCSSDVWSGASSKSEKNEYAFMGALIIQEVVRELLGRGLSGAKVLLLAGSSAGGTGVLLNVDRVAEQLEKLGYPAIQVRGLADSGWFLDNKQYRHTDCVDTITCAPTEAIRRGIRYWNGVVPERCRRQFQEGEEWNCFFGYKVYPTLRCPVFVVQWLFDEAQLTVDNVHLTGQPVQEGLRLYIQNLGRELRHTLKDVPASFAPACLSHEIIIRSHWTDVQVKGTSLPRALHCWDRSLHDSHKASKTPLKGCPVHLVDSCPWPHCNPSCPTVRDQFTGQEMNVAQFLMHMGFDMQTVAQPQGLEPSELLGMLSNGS
ASSAY_EXPLANATION: Notum TCF/LEF reporter (Luciferase) HEK293 cell assay
ASSAY_CONDITIONS: read-out: Notum EC50 (TCF-LEF); rWNT3a 100 ng/mL, Notum 500 ng/mL; geometric mean ± s.d., n = 3–4
Give bare numbers, as −log10 of the molar value.

>>> value("Cc1sc2ncnc(SCC(=O)N3CC(=O)N(C)C3)c2c1C(F)(F)F [Compound 23]")
6.77

Could you tell me pEC50 for each of these molecules? They are listed below.
1. CN1CN(C(=O)CSc2ncnc3c(C4CC4)c(Cl)sc23)CC1=O [Compound 20]
2. Cc1c(C(F)(F)F)sc2ncnc(SCC(=O)N3CC(=O)N(C)C3)c12 [Compound 22]
3. Cc1sc2ncnc(SCC(=O)N3CC(=O)N(C)C3)c2c1C [Compound 21]

6.96
6.68
5.89
